Target: T1, hPD-1-Fc (human, UniProt Q15116 25-167)
T1 construct: domain: IgV domain; also called human PD-1-Fc; not shown: human IgG1 Fc
T1 sequence (Q15116 25-167 limits assumed): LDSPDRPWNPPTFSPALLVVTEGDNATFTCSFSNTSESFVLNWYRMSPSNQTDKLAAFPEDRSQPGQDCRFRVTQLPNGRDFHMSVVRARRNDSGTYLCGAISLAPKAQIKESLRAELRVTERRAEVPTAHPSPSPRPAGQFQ
Assay: blocking ELISA, hPD-1-Fc to hPD-L1-Fc

# binder, Inhibition % (30 nM), %
records = [
    ("19B6 (antibody, V domains shown) VH: QVQLVQSGAEVKKPGASVKVSCKASGYTFTGYYMHWVRQAPGQGLEWMGIINPSGGSTSYAQKFQGRVTMTRDTSTSTVYMELSSLRSEDTAVYYCAKTAGYDWLPSGLGMDVWGQGTTVTVSS VL: DIQMTQSPSSLSASVGDRVTITCRASQSINSWLAWYQQKPGKAPKLLIYYASSLQSGVPSRFSGSGSGTDFTLTISSLQPEDFATYYCQQGYSVPLSFGQGTKLEIK", 85.9),
]
